Provenance of the data: the Deep4Chem optical property database

# ASSAY: solvent given as SMILES
# CONDITION NOTES: in CCO
Item-by-item account of emission maximum

{"COMPOUND SMILES": "CCC1=C(C)C2=C(C)c3cccn3[B-](F)(F)[N+]2=C1C", "emission maximum (nm)": 513.5}
{"COMPOUND SMILES": "CN1CCCc2cc3c(C(F)(F)F)cc(=O)oc3cc21", "emission maximum (nm)": 515}
{"COMPOUND SMILES": "COc1ccc(/C=C/C(=O)c2ccccc2O)cc1OC", "emission maximum (nm)": 500}
{"COMPOUND SMILES": "O=c1c(Nc2ccccc2)c([O-])c1=[NH+]c1ccccc1", "emission maximum (nm)": 492}
